src = PubChem BioAssay

- Test system: Human papillomavirus type 1a E7 protein (residues 1-88)
- Assay: HPV1a E7 small-molecule binders, primary screen, biochemical, small-molecule microarray, residues 1-88, 635 nm (AID 1129)
- Condition Label: small-molecule microarray binding, fluorescence 635 nm; higher = more signal
Recorded composite z-score split into classes low bin = under -0.9, mid bin = from -0.9 up to 0.3, high bin = 0.3 and over

# Molecule, Group Label
measured = [
    ("CO[C@H]1COC(=O)CC=C[C@@H](C)[C@H](OC)COC(=O)[C@@H]2CCCN2C(=O)CC=C[C@@H]1C", "mid bin"),
    ("CO[C@@H]1COC(=O)CC=C[C@@H](C)[C@H](OC)COC(=O)[C@@H](C)COC(=O)CC=C[C@H]1C", "low bin"),
]

GET /class?item= COC(=O)[C@@H]1CC[C@H](C)[C@@H](c2ccc(C)cc2)N1C(=O)c1ccc(C=NO[C@H](C)c2cn([C@H](CO)Cc3ccccc3)nn2)cc1 high bin

Lab note: sort C=CC[C@@H]1C=C[C@H](ON=C(C)CCN2CCc3nc(-c4ccccc4)c(-c4ccccc4)cc3C2)[C@@H](CO)O1 into the matching composite z-score band. high bin

Which composite z-score category applies to COC(=O)CC=C[C@@H](C)[C@@H](C=NO[C@@H]1O[C@H](COC(C)=O)[C@@H](OC(C)=O)[C@H](OC(C)=O)[C@H]1OC(C)=O)OC here? mid bin

Band of CON=C[C@@H](C)[C@H](OCc1ccccc1)C(C)C ? low bin

Determine which band this molecule sits in: COc1cccc([C@H]2Oc3ccc(OC)cc3C(=NO[C@H](C)c3cn([C@H](CO)Cc4ccccc4)nn3)[C@@H]2O)c1 mid bin

Tag the class for COc1ccc(O[C@H]2C=C[C@@H](c3ccccc3)O[C@@H]2CON=C(C)C)cc1 low bin

Which category fits this record: CC(=O)O[C@H]1C2=CO[C@H](C)[C@H]3[C@H]4C5=C([C@H](O)[C@H]6O[C@H]6C5=O)[C@H](OC4C)[C@@]23C(=O)[C@@H]2O[C@@H]21 (stereo not given in full) mid bin

Bin this entry: CC(CCN1CCCCc2nc(C)c(C)cc21)=NO[C@@H](C)c1cn([C@H](CO)Cc2ccccc2)nn1 mid bin

Which bin should I file CC(C)=NO[C@H](C)c1cn([C@H](CO)Cc2ccccc2)nn1 under? high bin

Looking at C#CCCCON=C1C[C@@H](O)[C@@H](O)[C@@H]2[C@@H]3C(=O)N(C(C)(C)C)C(=O)[C@@H]3CC[C@@H]12 , which class would you pick? mid bin

Kindly identify the class of CCCNC(=O)OC[C@H]1O[C@H](CCON=C(C)CCC(=O)OC[C@H]2O[C@H](c3ccccc3)C=C[C@@H]2Oc2ccc(OC)cc2)C=C[C@@H]1Oc1ccc(OC)cc1 . low bin

Class label required: COC(=O)CC=C[C@@H](C)[C@@H](C=NO[C@H](C)c1cn([C@H](CO)Cc2ccccc2)nn1)NS(=O)(=O)c1ccc(C)cc1 high bin

###

- Assay: basal 3T3-L1 adipocyte mitochondrial potential changes, profiling panel, cell-based, JC-1 fluorescence, 3T3-L1 adipocytes, 24 h, 100 nL compound (AID 1168); note: test concentration not given here
- Condition Label: JC-1 mitochondrial fluorescence, higher = more signal, called active from +8 up or from −8 down
A collection of compounds and their measured z-score
Field format: numeric only.

Below, each entry is followed by its recorded z-score result.
# Compound, z-score
measured = [
    ("C#CCCCON=C1C[C@@H](O)[C@@H](O)[C@@H]2[C@@H]3C(=O)N(C(C)(C)C)C(=O)[C@@H]3CC[C@@H]12", -0.286),
    ("O=C1[C@H]2[C@H]3[C@H](O)[C@H](O)CC(=NOC[C@@H](O)COCc4ccco4)[C@H]3CC[C@H]2C(=O)N1Cc1ccccc1", -0.161),
    ("COc1cccc([C@H]2Oc3ccc(OC)cc3C(=NOC(C)CN3CCCCc4nc(C)c(C)cc43)[C@@H]2O)c1 (stereo not given in full)", -0.832),
]

# evaluate next
Consider the compound CCOC(=O)[C@H](Cc1ccccc1)NC(=O)CCC1CC(OC(=O)NCCc2ccc(F)cc2)CC2(CCCC(COC(=O)NCCc3ccc(Cl)cc3)O2)O1 (stereo not given in full) . State its measured z-score. -0.305

###

- Assay System: Left-right determination factor 2 (Homo sapiens)
- Assay: LEFTY2 binders on small-molecule microarrays, primary screen, biochemical, small-molecule microarray, 635 nm fluorescence scan (AID 1110)
- Condition Label: LEFTY2 binding, higher = more signal
Parameter Measured: composite z-score
Reply with just the number.

# Compound, Assay System, composite z-score
measured = [
    ("CC(C)(C)N1C(=O)[C@H]2[C@H]3[C@H](O)[C@H](O)CC(=NOCc4ccccc4)[C@H]3CC[C@H]2C1=O", "Left-right determination factor 2 (Homo sapiens)", -0.0786),
    ("CSCC[C@@H]1NC(=O)CC=C[C@@H](C)COC(=O)[C@@H](C)COC1=O", "Left-right determination factor 2 (Homo sapiens)", 0.294),
    ("CC1O[C@H]2C3=C(C(=O)[C@@H]4O[C@@H]4[C@H]3O)[C@@H]1C1[C@@H](C)OC=C3[C@H](O)C4O[C@@H]4C(=NOCc4ccccc4)[C@]312 (stereo partly drawn)", "Left-right determination factor 2 (Homo sapiens)", 0.18),
]

Read the entry COC(=O)CC=C[C@@H](C)[C@@H](C=NO[C@H](C)c1cn([C@H](CO)Cc2ccccc2)nn1)OC and write its reported composite z-score. 1.1

Read off the recorded composite z-score for C[C@@H]1NC(=O)[C@@H](C)COC(=O)[C@H](C)NC(=O)[C@@H](C)COC1=O 0.737

Determine from records and report composite z-score for C[C@H]1COC(=O)[C@@H]2CCCN2C(=O)[C@@H](C)COC(=O)[C@H](Cc2ccccc2)NC1=O 0.474

Identify composite z-score associated with the compound C=Cc1ccc([C@H]2N[C@H](C(=O)O)CC[C@@H]2C)cc1 0.712

State its composite z-score for this compound: O=C1[C@H]2[C@H]3[C@H](O)[C@H](O)CC(=NOC[C@@H](O)COCc4ccco4)[C@H]3CC[C@H]2C(=O)N1C[C@@H]1CCCO1 1.19

###

Reported composite z-score values are given for each entry in this list.
- Assay System: Focal adhesion kinase 1 (Homo sapiens) (UniProt Q05397)
- Sequence (Q05397 whole entry, looked up): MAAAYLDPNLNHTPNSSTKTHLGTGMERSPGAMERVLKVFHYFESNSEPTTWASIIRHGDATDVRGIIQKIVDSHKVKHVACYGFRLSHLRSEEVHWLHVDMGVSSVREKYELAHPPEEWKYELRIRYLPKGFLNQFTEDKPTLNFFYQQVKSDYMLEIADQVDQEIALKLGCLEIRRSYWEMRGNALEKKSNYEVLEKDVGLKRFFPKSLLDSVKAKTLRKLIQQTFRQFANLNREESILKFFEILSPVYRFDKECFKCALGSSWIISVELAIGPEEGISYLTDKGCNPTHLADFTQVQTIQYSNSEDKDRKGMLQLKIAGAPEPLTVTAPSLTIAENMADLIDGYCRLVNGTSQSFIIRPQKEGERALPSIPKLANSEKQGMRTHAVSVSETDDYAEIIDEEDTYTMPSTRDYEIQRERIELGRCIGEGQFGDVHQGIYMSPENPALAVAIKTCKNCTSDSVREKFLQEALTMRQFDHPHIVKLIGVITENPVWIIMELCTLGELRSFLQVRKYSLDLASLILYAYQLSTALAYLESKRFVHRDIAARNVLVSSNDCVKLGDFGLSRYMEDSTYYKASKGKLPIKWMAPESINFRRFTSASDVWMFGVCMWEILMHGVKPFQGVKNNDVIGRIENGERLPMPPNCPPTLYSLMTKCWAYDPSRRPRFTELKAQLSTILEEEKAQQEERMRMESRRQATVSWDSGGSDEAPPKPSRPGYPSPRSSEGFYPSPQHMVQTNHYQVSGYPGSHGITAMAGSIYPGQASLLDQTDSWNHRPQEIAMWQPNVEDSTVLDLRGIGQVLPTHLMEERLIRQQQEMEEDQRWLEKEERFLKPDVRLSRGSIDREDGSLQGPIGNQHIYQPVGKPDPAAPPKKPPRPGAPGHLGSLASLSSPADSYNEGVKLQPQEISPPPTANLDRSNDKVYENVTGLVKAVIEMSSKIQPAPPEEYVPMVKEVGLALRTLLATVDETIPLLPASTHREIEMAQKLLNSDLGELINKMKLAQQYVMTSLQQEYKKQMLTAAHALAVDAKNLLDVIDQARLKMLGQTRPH
- Assay: small-molecule microarray binders of FAK, primary screen, biochemical, 635/667 nm fluorescence, BSA, DTT (AID 1130);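 note: composite of spot emission at 667 nm and signal to noise over triplicate slides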
- Condition Label: PTK2 binding, 635 nm fluorescence, higher = more signal
Please give only the number in your answer, with no unit.

Study these solved cases before continuing.
# Molecule, Assay System, composite z-score
rows = [
    ("CCOC(=O)NN=C1C[C@@H](O)[C@@H](O)[C@@H]2[C@@H]3C(=O)N([C@@H](C)c4ccccc4)C(=O)[C@@H]3CC[C@H]12", "Focal adhesion kinase 1 (Homo sapiens) (UniProt Q05397)", -0.35),
    ("CC(=O)OC[C@H]1O[C@H](CC=NO[C@H](C)c2cn([C@H](CO)Cc3ccccc3)nn2)C=C[C@@H]1OC(C)=O", "Focal adhesion kinase 1 (Homo sapiens) (UniProt Q05397)", -0.0453),
    ("CCOC(=O)[C@H](Cc1ccccc1)NC(=O)CCC1CC(OC(=O)NCCc2ccc(F)cc2)CC2(CCCC(COC(=O)NCCOC)O2)O1 (some centres undefined)", "Focal adhesion kinase 1 (Homo sapiens) (UniProt Q05397)", 2.79),
]

--- query ---
Please look at this molecule and report its composite z-score: CCOC(=O)[C@H](CC(C)C)NC(=O)CCC1CC(OC(=O)NCc2cccc3ccccc23)CC2(CCCC(COC(=O)NCc3ccncc3)O2)O1 (some centres undefined) 0.0121

###

We begin with a simple list: items and their reported composite z-score.
- Tested on: Plasmodium falciparum Sir2 (PF13_0152, Sir2A)
- Assay: pfSir2 binders on small-molecule microarrays, primary screen, biochemical, small-molecule microarray, 635 nm fluorescence (AID 1098);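 note: score merges spot fluorescence intensity with its signal-to-noise ratio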
- Condition Label: small-molecule microarray binding, fluorescence 635 nm; higher = more signal
Lab note: record the figure alone, no unit after it.

# Chem Smiles, Assay System, composite z-score
data = [
    ("CCCNC(=O)OC[C@H]1O[C@H](CCON=C(C)CCN2CCCc3nc(C)c(C)cc32)C=C[C@@H]1Oc1ccc(OC)cc1", "Plasmodium falciparum Sir2 (PF13_0152, Sir2A)", 0.333),
]

Give recorded composite z-score. CC(C)=CCCC(C)=CCON=C1C[C@@H](O)[C@@H](O)[C@@H]2[C@@H]3C(=O)N(C[C@@H]4CCCO4)C(=O)[C@@H]3CC[C@H]12 0.346

Please report the measured composite z-score for Cc1ccc(S(=O)(=O)OC[C@H]2CN3[C@H](c4ccc(Br)cc4)[C@@H](C)CC[C@H]3C(=O)O2)cc1 0.579

Give the reported value of composite z-score for this record: COc1ccc(COC(=O)NN=C2C[C@@H](O)[C@@H](O)[C@@H]3[C@@H]4C(=O)N(c5ccc(F)cc5F)C(=O)[C@@H]4CC[C@H]23)cc1 0.299
